We begin with a simple list: items and their reported melting point.
Where a name gives a salt, the structure may show the parent alone.

| molecule | melting point |
| --- | --- |
| Cc1ccc(Oc2ccc(C(=O)N3CC[C@H](N4CCCC4)C3)cc2)cc1 (as salt: hydrochloride) | 98 to 100 °C |
| COc1cccc(Oc2ccc(C(=O)N3CC[C@H](N4CCCC4)C3)cc2)c1 (as salt: hydrochloride) | 82 to 84 °C |
| Cc1cc(Cl)ccc1Oc1ccc(C(=O)N2CC[C@H](N3CCCC3)C2)cc1 (as salt: hydrochloride) | 123 to 125 °C |
| Cc1ccc(Oc2ccc(C(=O)N3CC[C@H](N4CCCC4)C3)cc2)c(Cl)c1 (as salt: hydrochloride) | 124 to 126 °C |
